Measured koff, listed per entry.
targetOrSystem: ClpC1 NTD protein (M. tuberculosis) (Mycobacterium tuberculosis)
experimentSummary: biochemical
Format: binding
conditionSummary: SPR, single independent measurements; read-out: koff ClpC1-NTD
*1 amine or outer side, *2 acyl side, *3 side chain or, on linkers, in order; H or OH if unused. Where a SMILES comes first, the peptide text is derived from it. [ ]: non-standard residue; d: D form. X5 = C=CCn1cc(C[C@@H](C(=O)[*:2])N(C)[*:1])c2ccccc21; NMeLeu(5-OH,4R) = CN[C@@H](C[C@@H](C)CO)C(=O)O; Phe(βR-OMe) = CO[C@H](c1ccccc1)[C@H](N)C(=O)O; NMeL = CN[C@@H](CC(C)C)C(=O)O
The response must be a number in s⁻¹ with no trailing unit.

• CO[C@H](c1ccccc1)[C@@H]1NC(=O)[C@H](C)NC(=O)[C@H](C[C@@H](C)CO)N(C)C(=O)[C@H](Cc2cn(C)c3ccccc23)N(C)C(=O)[C@H](Cc2cn(CCCCCn3cc(C[C@@H]4NC(=O)[C@H](CC(C)C)N(C)C(=O)[C@H](C(C)C)NC(=O)[C@H]([C@H](OC)c5ccccc5)NC(=O)[C@H](C)NC(=O)[C@H](C[C@@H](C)CO)N(C)C(=O)[C@H](Cc5cn(C)c6ccccc56)N(C)C4=O)nn3)nn2)NC(=O)[C@H](CC(C)C)N(C)C(=O)[C@H](C(C)C)NC1=O = 0.007

Continue with the next molecule.
Return value of koff for input C=CCn1cc(C[C@H]2C(=O)N(C)[C@@H](C[C@@H](C)CO)C(=O)N[C@@H](C)C(=O)N[C@@H]([C@H](OC)c3ccccc3)C(=O)N[C@@H](C(C)C)C(=O)N(C)[C@@H](CC(C)C)C(=O)N[C@@H](C(C)C)C(=O)N2C)c2ccccc21 [SI-60] (cyclo(A[Phe(βR-OMe)]V[NMeL]V[X5][NMeLeu(5-OH,4R)])) , no commentary.
0.03

----------
targetOrSystem: ClpC1 NTD protein (M. tuberculosis) (Mycobacterium tuberculosis, UniProt P9WPC9)
experimentSummary: biochemical
Format: binding
conditionSummary: SPR (Supplementary Table 1); read-out: KD ClpC1-NTD Mean ± SD
*1 amine or outer side, *2 acyl side, *3 side chain or, on linkers, in order; H or OH if unused. Where a SMILES comes first, the peptide text is derived from it. [ ]: non-standard residue; d: D form. ξ: configuration not given here. X3 = C#CCOc1ccc([C@@H](OC)[C@H](N[*:1])C(=O)[*:2])cc1; NMeTrp(1-Me) = CN[C@@H](Cc1cn(C)c2ccccc12)C(=O)O; NMeLeu(5-OH,4R) = CN[C@@H](C[C@@H](C)CO)C(=O)O; Phe(βR-OMe) = CO[C@H](c1ccccc1)[C@H](N)C(=O)O; ξNMeTrp(1-Me) = CNC(Cc1cn(C)c2ccccc12)C(=O)O; X8 = CC(CO)C[C@@H](C(=O)[*:2])N(C)[*:1]; NMeL = CN[C@@H](CC(C)C)C(=O)O; ξV = CC(C)C(N)C(=O)O
Item-by-item account of Kd
Give a bare numeral; the unit nM is implied.

Sample answers from the record:
* CO[C@H](c1ccccc1)[C@@H]1NC(=O)[C@H](C)NC(=O)[C@H](C[C@@H](C)CO)N(C)C(=O)[C@H](Cc2cn(Cc3cn(CCCCCn4cc(Cn5cc(C[C@H]6C(=O)N(C)[C@@H](C[C@@H](C)CO)C(=O)N[C@@H](C)C(=O)N[C@@H]([C@H](OC)c7ccccc7)C(=O)N[C@@H](C(C)C)C(=O)N(C)[C@@H](CC(C)C)C(=O)N[C@@H](C(C)C)C(=O)N6C)c6ccccc65)nn4)nn3)c3ccccc23)N(C)C(=O)[C@H](C(C)C)NC(=O)[C@H](CC(C)C)N(C)C(=O)[C@H](C(C)C)NC1=O | 1.6
* C#CCOc1ccc([C@@H](OC)[C@@H]2NC(=O)[C@@H](C)NC(=O)[C@H](CC(C)CO)N(C)C(=O)C(Cc3cn(C)c4ccccc34)N(C)C(=O)C(C(C)C)NC(=O)[C@H](CC(C)C)N(C)C(=O)[C@@H](C(C)C)NC2=O)cc1 (some centres unmarked) [SI-64] (cyclo([NMeL][ξV][ξNMeTrp(1-Me)][X8][dA][X3][dV])) | 11
* CO[C@H](c1ccccc1)[C@@H]1NC(=O)[C@H](C)NC(=O)[C@H](C[C@@H](C)CO)N(C)C(=O)[C@H](Cc2cn(C)c3ccccc23)N(C)C(=O)[C@H](CCC(=O)N(C)C)NC(=O)[C@H](CC(C)C)N(C)C(=O)[C@H](C(C)C)NC1=O [SI-76] (cyclo(A[Phe(βR-OMe)]V[NMeL]E(NMe2)[NMeTrp(1-Me)][NMeLeu(5-OH,4R)])) | 26

Read the entry COC(c1ccccc1)C1NC(=O)C(C)NC(=O)C(CC(C)CO)N(C)C(=O)C(Cc2cn(CCCCn3cc(CC4NC(=O)C(C(C)C)NC(=O)C(CC(C)C)N(C)C(=O)C(C(C)C)NC(=O)C(C(OC)c5ccccc5)NC(=O)C(C)NC(=O)C(CC(C)CO)N(C)C4=O)c4ccccc43)c3ccccc23)NC(=O)C(C(C)C)NC(=O)C(CC(C)C)N(C)C(=O)C(C(C)C)NC1=O (centres unmarked) and write its reported Kd.
0.5

Return Kd for the following molecule: CO[C@H](c1ccc(OCc2cn(CCCCCn3cc(COc4ccc([C@@H](OC)[C@@H]5NC(=O)[C@H](C)NC(=O)[C@H](C[C@@H](C)CO)N(C)C(=O)[C@H](Cc6cn(C)c7ccccc67)NC(=O)[C@H](C(C)C)NC(=O)[C@H](CC(C)C)N(C)C(=O)[C@H](C(C)C)NC5=O)cc4)nn3)nn2)cc1)[C@@H]1NC(=O)[C@H](C)NC(=O)[C@H](C[C@@H](C)CO)N(C)C(=O)[C@H](Cc2cn(C)c3ccccc23)NC(=O)[C@H](C(C)C)NC(=O)[C@H](CC(C)C)N(C)C(=O)[C@H](C(C)C)NC1=O
0.66

----------
experimentSummary: in vivo
Format: in vivo, BALB/cAnNCrl mice
conditionSummary: male, BALB/cAnNCrl, mouse, in vivo, iv, 0.0677 umol/kg, iv bolus, individual animals 1-3; read-out: Vss
quantityName: Vd (L/kg)
Number in L/kg, nothing else.

Supply reported Vd belonging to this molecule: CO[C@H](c1ccccc1)[C@@H]1NC(=O)[C@H](C)NC(=O)[C@H](C[C@@H](C)CO)N(C)C(=O)[C@H](Cc2cn(Cc3cn(CCOCCn4cc(Cn5cc(C[C@@H]6NC(=O)[C@H](C(C)C)NC(=O)[C@H](CC(C)C)N(C)C(=O)[C@H](C(C)C)NC(=O)[C@H]([C@H](OC)c7ccccc7)NC(=O)[C@H](C)NC(=O)[C@H](C[C@@H](C)CO)N(C)C6=O)c6ccccc65)nn4)nn3)c3ccccc23)NC(=O)[C@H](C(C)C)NC(=O)[C@H](CC(C)C)N(C)C(=O)[C@H](C(C)C)NC1=O
1.1

----------
experimentSummary: in vitro
conditionSummary: human, Caco-2, Caco-2 permeability P (A-B), apical to basolateral
quantityName: Papp A→B (×10⁻⁶ cm/s)
Report only the number, with the unit ×10⁻⁶ cm/s understood.

Provide measured Papp A→B value, entry: CO[C@H](c1ccccc1)[C@@H]1NC(=O)[C@H](C)NC(=O)[C@H](C[C@@H](C)CO)N(C)C(=O)[C@H](Cc2cn(C)c3ccccc23)N(C)C(=O)[C@H](Cc2cn(CCCCCn3cc(C[C@@H]4NC(=O)[C@H](CC(C)C)N(C)C(=O)[C@H](C(C)C)NC(=O)[C@H]([C@H](OC)c5ccccc5)NC(=O)[C@H](C)NC(=O)[C@H](C[C@@H](C)CO)N(C)C(=O)[C@H](Cc5cn(C)c6ccccc56)N(C)C4=O)nn3)nn2)NC(=O)[C@H](CC(C)C)N(C)C(=O)[C@H](C(C)C)NC1=O
0.5

----------
Format: in vitro ADME, Rat
conditionSummary: clearance in hepatocytes
Where a SMILES comes first, the peptide text is derived from it. [ ]: non-standard residue; d: D form. NMeLeu(5-OH,4R) = CN[C@@H](C[C@@H](C)CO)C(=O)O; Phe(βR-OMe) = CO[C@H](c1ccccc1)[C@H](N)C(=O)O; Trp(1-Me) = Cn1cc(C[C@H](N)C(=O)O)c2ccccc21; NMeL = CN[C@@H](CC(C)C)C(=O)O; Pra = C#CC[C@H](N)C(=O)O
quantityName: Hepatocyte Rat (%Qh)
Answer in %Qh, number only, no unit symbol.

Specify reported Hepatocyte Rat for the compound shown: CO[C@H](c1ccc(OCc2cn(CCCCCn3cc(COc4ccc([C@@H](OC)[C@@H]5NC(=O)[C@H](C)NC(=O)[C@H](C[C@@H](C)CO)N(C)C(=O)[C@H](Cc6cn(C)c7ccccc67)NC(=O)[C@H](C(C)C)NC(=O)[C@H](CC(C)C)N(C)C(=O)[C@H](C(C)C)NC5=O)cc4)nn3)nn2)cc1)[C@@H]1NC(=O)[C@H](C)NC(=O)[C@H](C[C@@H](C)CO)N(C)C(=O)[C@H](Cc2cn(C)c3ccccc23)NC(=O)[C@H](C(C)C)NC(=O)[C@H](CC(C)C)N(C)C(=O)[C@H](C(C)C)NC1=O [SI-40]
12

Let me know recorded Hepatocyte Rat for C#CC[C@@H]1NC(=O)[C@H](CC(C)C)N(C)C(=O)[C@H](C(C)C)NC(=O)[C@H]([C@H](OC)c2ccccc2)NC(=O)[C@H](C)NC(=O)[C@H](C[C@@H](C)CO)N(C)C(=O)[C@H](Cc2cn(C)c3ccccc23)NC1=O [Compound 10] (cyclo(A[Phe(βR-OMe)]V[NMeL][Pra][Trp(1-Me)][NMeLeu(5-OH,4R)])) , thanks.
70
